Task for the reader: assign each of the following binders its reported binding score.
SYSTEM TESTED: T1, CaBdf1 BD2 (GST-tagged, wild-type) (Candida albicans (strain SC5314 / ATCC …, UniProt Q5A4W8))
T1 chain: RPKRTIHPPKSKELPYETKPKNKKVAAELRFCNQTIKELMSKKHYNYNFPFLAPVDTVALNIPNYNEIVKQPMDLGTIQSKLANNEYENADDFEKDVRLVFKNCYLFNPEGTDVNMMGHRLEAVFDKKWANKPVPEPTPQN
TEST NAME: histone peptide array (Active Motif MODified), 1 uM GST-tagged bromodomain, anti-GST detection, normalized mean intensity
Square brackets hold non-standard residues; d marks the D form. Ends that are not written are not given here. Arg(Me2a) = CN(C)C(=N)NCCC[C@H](N)C(=O)O; Arg(Me2s) = CN=C(NC)NCCC[C@H](N)C(=O)O; pS = N[C@@H](COP(=O)(O)O)C(=O)O; Lys(Me) = CNCCCC[C@H](N)C(=O)O
One number for each entry.

Recorded results for 3 binders are shown here.
- BINDER: "A[Arg(Me2a)]T[Lys(Me)]QTA[Arg(Me2s)][Lys(Me)]STGGKAPRKQ"
  binding score: 0.0037
- BINDER: "ARTKQTA[Arg(Me2s)]K(Ac)[pS]TGGKAPRKQ"
  binding score: 0.00296
- BINDER: "EQKLISEEDLA (histone peptide post-translational modifications (acetyl, methyl, phospho, citrulline) listed in columns 4-7 and embedded in the sequence text; N-terminus free or acetylated in column 8) [c-myc tag]"
  binding score: 1

Alright, here's another binder for you.
// recorded binding score for RKSAPATGGVKKPHRYRPG (R K S A P A T G G V Kac K P H R Y R P G) [H3 26-45] : 0.0122

Where do these numbers come from? They come from paper PMC5454392.
